Origin of measurements: ChEMBL document CHEMBL1128573

# Measurement Target: UniProt:P31213
# Sequence (P31213 whole entry): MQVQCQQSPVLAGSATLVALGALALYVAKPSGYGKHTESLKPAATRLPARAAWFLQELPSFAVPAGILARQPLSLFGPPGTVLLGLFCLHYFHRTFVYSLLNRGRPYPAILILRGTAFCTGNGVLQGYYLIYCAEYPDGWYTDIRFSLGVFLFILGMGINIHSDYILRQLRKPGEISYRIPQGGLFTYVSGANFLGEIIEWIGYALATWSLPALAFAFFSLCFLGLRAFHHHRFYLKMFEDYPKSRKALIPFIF
# Experiment Notes: In vitro inhibition of human Steroid 5-alpha-reductase type 2 in transfected SW-13 cells using [3H]- delta4-Androstenedione as substrate
# Type: cell-based
pIC50: −log10 of the molar value.
Note to self: values exactly at 7 are met. So pIC50 at or above 7 is met, below is not met.

Molecule	Category
CC(C)(C)NC(=O)[C@H]1CCC2C3CCC4=C(S)C(=O)CC[C@]4(C)C3CC[C@@]21C (stereo partly specified)	not met
CC(C)(C)NC(=O)[C@H]1CCC2C3CCC4=C(Cl)C(=O)CC[C@]4(C)C3CC[C@@]21C (stereo partly specified)	not met
CC(C)(C)NC(=O)[C@H]1CC[C@H]2[C@@H]3CC[C@H]4NC(=O)C=C[C@]4(C)[C@H]3CC[C@]12C [FINASTERIDE]	met

Prompt line: Textbook exercise: given the entry CC(C)(C)NC(=O)[C@H]1CCC2C3CCC4=C(O)C(=O)CC[C@]4(C)C3CC[C@@]21C (stereo partly specified) , state whether its pIC50 is greater than or equal to 7.
Response line: not met

Prompt line: Check this molecule for pIC50 at or above 7: CC(C)(C)NC(=O)[C@H]1CCC2C3CCC4=C(Br)C(=O)CC[C@]4(C)C3CC[C@@]21C (stereo partly specified)
Response line: not met

* * *

# Measurement Target: 3-oxo-5-alpha-steroid 4-dehydrogenase 1 (Homo sapiens)
# Sequence (P18405 whole entry): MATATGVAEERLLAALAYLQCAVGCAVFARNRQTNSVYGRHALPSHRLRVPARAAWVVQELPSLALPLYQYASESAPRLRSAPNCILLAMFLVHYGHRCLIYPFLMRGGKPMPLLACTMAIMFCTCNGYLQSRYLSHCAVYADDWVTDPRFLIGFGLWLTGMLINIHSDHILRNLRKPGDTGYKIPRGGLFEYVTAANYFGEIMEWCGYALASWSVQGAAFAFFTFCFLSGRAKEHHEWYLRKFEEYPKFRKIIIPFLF
# Experiment Notes: In vitro inhibition of human tSteroid 5-alpha-reductase type I in transfected 293 cells using [3H]- delta4-Androstenedione as substrate.
# Assay type: cell-based, HEK293
Exercise: state measured IC50 for each of the compounds provided.

Compound	Result
CC(C)(C)NC(=O)[C@H]1CCC2C3CCC4=C(Br)C(=O)CC[C@]4(C)C3CC[C@@]21C (stereo not given in full)	981 nM
CC(C)(C)NC(=O)[C@H]1CCC2C3CCC4=C(S)C(=O)CC[C@]4(C)C3CC[C@@]21C (stereo not given in full)	709 nM

Please report IC50 for every entry that follows.
1. [3H]C1CC2=CC(=O)CC[C@]2(C)[C@H]2CC[C@]3(C)C(=O)CC[C@H]3[C@H]12 (stereo not given in full)
2. CC(C)(C)NC(=O)[C@H]1CCC2C3CCC4=C(O)C(=O)CC[C@]4(C)C3CC[C@@]21C (stereo not given in full)
3. CC(C)(C)NC(=O)[C@H]1CCC2C3CCC4=C(Cl)C(=O)CC[C@]4(C)C3CC[C@@]21C (stereo not given in full)

Response line:
1. 2700 nM
2. > 1000 nM
3. > 1000 nM
